Tested on: BDF1 mice, B16 melanoma ip, median survival T/C
Assay: NCI In Vivo Anticancer Drug Screen. Data for tumor model B16 Melanoma (intraperitoneal) in B6D2F1 (BDF1) mice
Conditions: endpoint: median survival time; dose: 100.0 mg/kg/injection; schedule: Q01DX009 (ip); vehicle: Klucel (hydroxypropylcellulose) (HPC); higher = longer survival
Experimental: The antitumor activity of compounds was measured in mice bearing transplantable tumors. Survival or tumor size were measured and the results are expressed as the measurement made in the treated group (T) divided by the measurement made in the vehicle treated control group (C). The tumor model used in this assay is B16 Melanoma (intraperitoneal) in B6D2F1 (BDF1) mice
Inconclusive results and toxic doses are left out.
attribute.measured: T/C

get_value(item= Cc1ccc(NC(=O)Nc2ccccc2Cl)cc1Cl , readout=T/C) returns 104 % of control

get_value(item= Clc1ccc2sc3c(c2c1)CCNC3 , readout=T/C) returns 105 % of control

get_value(item= O=[N+]([O-])c1ccc(N2CCCC2)c([N+](=O)[O-])c1 , readout=T/C) returns 93 % of control

get_value(item= CCC1OC(=O)CC(O)C(C)C(OC2OC(C)C(O)C(N(C)C)C2O)C(CC=O)CC(C)C(=O)/C=C/C2(C)OC2C1C (stereo not given) , readout=T/C) returns 88 % of control

get_value(item= O=C(/C=C/C(=O)Oc1c(Cl)c(Cl)c(Cl)c(Cl)c1Cl)Oc1c(Cl)c(Cl)c(Cl)c(Cl)c1Cl , readout=T/C) returns 86 % of control
